- TEST TARGET: T1, Murine OPG-Fc (mouse, UniProt O08712 22-401)
- T1 sequence (looked up): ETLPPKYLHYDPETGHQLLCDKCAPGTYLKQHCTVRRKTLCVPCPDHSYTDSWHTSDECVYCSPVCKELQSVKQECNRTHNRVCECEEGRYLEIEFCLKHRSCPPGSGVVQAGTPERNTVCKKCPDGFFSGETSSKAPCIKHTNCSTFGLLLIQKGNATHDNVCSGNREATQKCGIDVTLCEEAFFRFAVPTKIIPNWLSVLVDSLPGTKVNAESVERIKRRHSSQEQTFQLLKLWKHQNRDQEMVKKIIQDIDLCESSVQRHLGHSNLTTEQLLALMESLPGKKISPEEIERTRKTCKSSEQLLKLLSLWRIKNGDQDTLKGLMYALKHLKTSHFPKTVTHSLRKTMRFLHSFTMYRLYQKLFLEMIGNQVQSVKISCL
- ASSAY METHOD TEXT: SPR
MEASUREMENT TYPE: koff (s⁻¹)
Please state the figure in s⁻¹; there is no need to write the unit.

RANKL_Q236K (ligand, mouse, UniProt O35235 160-316, looked up) EAQPFAHLTINAASIPSGSHKVTLSSWYHDRGWAKISNMTLSNGKLRVNQDGFYYLYANICFRHHETSGSVPTDYLKLMVYVVKTSIKIPSSHNLMKGGSTKNWSGNSEFHFYSINVGGFFKLRAGEEISIQVSNPSLLDPDQDATYFGAFKVQDID :: 0.00146

// below: koff requested for another binder
What value of koff has been recorded for this entry: RANKL_Q236H (ligand, mouse, UniProt O35235 160-316, looked up) EAQPFAHLTINAASIPSGSHKVTLSSWYHDRGWAKISNMTLSNGKLRVNQDGFYYLYANICFRHHETSGSVPTDYLHLMVYVVKTSIKIPSSHNLMKGGSTKNWSGNSEFHFYSINVGGFFKLRAGEEISIQVSNPSLLDPDQDATYFGAFKVQDID
0.00022
